# Target Or Test System: human S1P1 receptor (Homo sapiens, UniProt P21453)
# Construct: membranes used
# Sequence (P21453 whole entry): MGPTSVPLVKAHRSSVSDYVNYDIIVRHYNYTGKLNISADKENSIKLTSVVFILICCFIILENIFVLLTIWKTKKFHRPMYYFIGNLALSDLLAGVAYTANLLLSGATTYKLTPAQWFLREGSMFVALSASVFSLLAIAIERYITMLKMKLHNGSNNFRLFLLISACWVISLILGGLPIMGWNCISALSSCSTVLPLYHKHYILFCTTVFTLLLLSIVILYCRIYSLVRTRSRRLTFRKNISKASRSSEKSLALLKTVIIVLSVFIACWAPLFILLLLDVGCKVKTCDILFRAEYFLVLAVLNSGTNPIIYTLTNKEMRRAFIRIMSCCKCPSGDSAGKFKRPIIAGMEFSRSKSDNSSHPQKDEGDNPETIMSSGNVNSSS
# Measurement Description: GTP γ35S binding assay for S1P1 activity
# Test Settings: membranes of cells stably expressing the S1P1 receptor, test concentrations 0.08 to 5,000 nM
Endpoint Name: EC50 (nM)

INSERT INTO results (molecule, endpoint_name, measured_number) VALUES
  ('Cc1ccc(CC(CCCCCCCNCCCP(=O)(O)O)c2cc(F)cc(F)c2)cc1C (centres unmarked)', 'EC50', 3.03),
  ('Cc1ccc(CC(CCCCCCCNCCC(=O)O)c2cccc(Cl)c2)cc1C (centres unmarked)', 'EC50', 487),
  ('Cc1ccc(CC(CCCCCCCCNCCCP(=O)(O)O)c2cccc(Cl)c2)cc1C (centres unmarked)', 'EC50', 293);

[a] Cc1ccc(CC(CCCCCCCNCCCP(=O)(O)O)c2cccc(Cl)c2)cc1C (centres unmarked)
[b] O=P(O)(O)CCCNCCCCCCCCC(Cc1ccccc1)c1cccc(Cl)c1 (centres unmarked)
[c] Cc1ccc(CC(CCCCCCCNCCC(=O)O)c2cc(F)cc(F)c2)cc1C (centres unmarked)
[d] Cc1ccc(CC(CCCCCCNCCCP(=O)(O)O)c2cccc(Cl)c2)cc1C (centres unmarked)
[e] O=C(O)CCNCCCCCCCCC(Cc1ccccc1)c1cccc(Cl)c1 (centres unmarked)
Reorder the items by EC50, least to greatest. Arrange the labels as the request states and list them.
b, a, e, c, d
(b: 2.13 nM, a: 8.18 nM, e: 21.8 nM, c: 45.4 nM, d: 169 nM)

The values you see were collected from patent US20150051176A1.
